target: BRD4 BD2 (Homo sapiens); test: AlphaScreen binding assay, BRD4 Bromodomain 2
Parameter: IC50. Scope: all listed entries.
property: IC50

C[C@H]1CN(C(=O)c2ccco2)c2cc(-c3ccc(S(C)(=O)=O)cc3)ccc2N1C(N)=O [Example I-987] | > 500 nM
COc1ccc(OC(=O)N2C[C@H](C)N(C(C)=O)c3ccc(-c4cnn(C5CC5)c4)cc32)cc1 [Example I-263] | < 50 nM
CC(=O)N1c2ccc(-c3cccc(N4CCCS4(=O)=O)c3)cc2N(C(=O)C2CCC2)C[C@@H]1C [Example I-1161] | 50 to 500 nM
CC(=O)N1c2ccc(-c3ccc(S(C)(=O)=O)c(F)c3)cc2N(C(=O)OC(C)C)C[C@@H]1C [Example I-1085] | 50 to 500 nM

----------
This section presents molecules with their documented pIC50 values.
target: BRD4 BD1 (Homo sapiens, UniProt O60885); test: AlphaScreen binding assay, BRD4 Bromodomain 1
pIC50: −log10 of the molar value.
property: pIC50

CC(=O)N1c2ccccc2N(C(=O)c2ccc(C(C)C)cn2)C[C@@H]1C | < 5.00
CC(=O)N1c2ccc(-c3cccc(S(=O)(=O)N(C)C)c3)cc2N(C(=O)C2CCC2)C[C@@H]1C | 5.00 to 6.00
CC(=O)N1c2ccc(-c3ccc(-c4cc(C(=O)O)[nH]n4)cc3)cc2N(C(=O)c2ccco2)CC1C (stereo not shown) | 6.00 to 7.00
COC(=O)N1c2ccc(-c3ccc(N4CCCS4(=O)=O)cc3)cc2N(C(=O)C2CC2)C[C@@H]1C | 5.00 to 6.00
CC(=O)N1c2ccccc2N(C(=O)c2cc3cc(Cl)ccc3o2)C[C@@H]1C | < 5.00
CC(=O)N1c2ccc(-c3cnn(C4COC4)c3)cc2N(C(=O)Oc2ccccc2)C[C@@H]1C | 6.00 to 7.00
CC(=O)N1c2ccc(-c3cnn(C4CC4)c3)cc2N(C(=O)Oc2cncc(C)c2)C[C@@H]1C | 5.00 to 6.00

----------
IC50 listing for selected compounds.
target: BRD4 BD1 (Homo sapiens, UniProt O60885); assay: AlphaScreen binding assay, BRD4 Bromodomain 1
property: IC50

CC(=O)N1c2ccc(-c3ccc(S(C)(=O)=O)cc3)cc2N(C(=O)c2cc3cnccc3[nH]2)CC1C (stereo not shown) | 1 to 10 µM
CCCS(=O)(=O)c1ccc(-c2ccc3c(c2)N(C(=O)OC(C)C)C[C@H](C)N3C(C)=O)cc1 | 0.1 to 1 µM
CC(=O)N1c2ccc(-c3ccc(N4CCOCC4)cc3)cc2N(C(=O)C2CCC2)C[C@@H]1C | 1 to 10 µM
CC(=O)N1c2ccc(-c3ccc(S(C)(=O)=O)cc3)cc2N(C(=O)Nc2cccc(C)c2)C[C@@H]1C | > 10 µM
CC(=O)N1c2ccc(-c3cnn(C4CC4)c3)nc2N(C(=O)OC(C)C)C[C@@H]1C | 1 to 10 µM
CCS(=O)(=O)c1ccc(-c2ccc3c(c2)N(C(=O)OC(C)C)C[C@H](C)N3C(C)=O)cc1 | 0.1 to 1 µM
CO[C@@H](C(=O)N1C[C@H](C)N(C(C)=O)c2ccccc21)c1ccccc1 | > 10 µM

----------
target: BRD4 BD1 (Homo sapiens, UniProt O60885); experiment: AlphaScreen binding assay, BRD4 Bromodomain 1
Listing: IC50 of selected compounds
property: IC50

COc1ccccc1OC(=O)N1C[C@H](C)N(C(C)=O)c2ccc(-c3cnn(C4CC4)c3)cc21 | 0.1 to 1 µM
CC(=O)N1c2ccc(-c3cnn(C4CC4)c3)cc2N(C(=O)Oc2cccc(C)c2)C[C@@H]1C | 0.1 to 1 µM
CC(C)OC(=O)N1C[C@H](C)N(C(=O)C2CC2)c2ccc(-c3ccc(C(=O)NCc4ncco4)cc3)cc21 | 1 to 10 µM
COC(=O)N1c2ccc(-c3cnn(C4CCNCC4)c3)cc2N(C(=O)Oc2cccnc2)C[C@@H]1C | 1 to 10 µM
CC(=O)N1c2ccc(-c3ccc(C(=O)NCCN)cc3)cc2N(C(=O)OC(C)C)C[C@@H]1C | 0.1 to 1 µM
CC(=O)N1c2ccc(-c3cnn(C(C)C)c3)cc2N(C(=O)C2CC2)C[C@@H]1C | 0.1 to 1 µM
CNS(=O)(=O)c1ccc(-c2ccc3c(c2)N(C(=O)OC2CCOCC2)C[C@H](C)N3C(C)=O)cc1 | 0.1 to 1 µM
CCN(CC)S(=O)(=O)c1cc(-c2ccc3c(c2)N(C(=O)OC(C)C)C[C@H](C)N3C(C)=O)ccc1OC | 0.1 to 1 µM
CNC(=O)Nc1cc2c(cc1-c1cnn(C3CC3)c1)N(C(=O)OC(C)C)C[C@H](C)N2C(C)=O | 0.1 to 1 µM
CC(=O)N1c2ccccc2N(Cc2ccccc2)C[C@@H]1C | > 10 µM
CC(=O)N1c2ccc(-c3ccc(N4CCCS4(=O)=O)cc3)cc2N(C(=O)OC2CCC(F)(F)CC2)C[C@@H]1C | 1 to 10 µM
CCN(CC)S(=O)(=O)c1cc(-c2ccc3c(c2)N(C(=O)C2CCC2)C[C@H](C)N3C(C)=O)ccc1OC | 1 to 10 µM
CC(=O)N1c2ccccc2N(C(=O)[C@H](C)c2ccccc2)C[C@@H]1C | > 10 µM
CC(=O)N1c2ccc(-c3cc(Cl)cc(S(C)(=O)=O)c3)cc2N(C(=O)OC2CCCCC2)C[C@@H]1C | 1 to 10 µM
CC(=O)N1c2ccc(-c3ccc(S(C)(=O)=O)cc3)cc2N(C(=O)NCC(C)C)C[C@@H]1C | > 10 µM
CC(=O)N1c2ccc(-c3cnn(C4COC4)c3)cc2N(C(=O)OCCC2COC2)C[C@@H]1C | > 10 µM
CC(=O)N1c2ccccc2N(S(=O)(=O)c2ccn(C)n2)C[C@@H]1C | > 10 µM
COc1ccc(Cl)cc1OC(=O)N1C[C@H](C)N(C(C)=O)c2ccc(-c3cnn(C4CC4)c3)cc21 | 0.1 to 1 µM
C[C@H]1CN(C(=O)OC2CCOCC2)c2cc(-c3cnn(C4CC4)c3)ccc2N1C(=O)C1CC1 | 0.1 to 1 µM
CC(=O)N1c2ccc(-c3ccc(S(=O)(=O)N(C)C)cc3)cc2N(C(=O)OC2CCCCC2)C[C@@H]1C | 0.1 to 1 µM
CC(=O)N1c2ccc(-c3ccc(C(=O)N4CCCC[C@@H]4CN)cc3)cc2N(C(=O)OC(C)C)C[C@@H]1C | 0.1 to 1 µM
CC(=O)N1c2ccc(-c3cnn(C4CN[C@@H]4C)c3)cc2N(C(=O)OC2CCC2)C[C@@H]1C (some centres unmarked) | 0.1 to 1 µM
CC(=O)N1c2ccc(-c3ccnc(C(F)(F)F)c3)cc2N(C(=O)c2ccco2)C[C@@H]1C | 1 to 10 µM
CC(=O)N1c2ccc(-c3cccc(S(=O)(=O)N(C)C)c3)cc2N(C(=O)OC(C)C)C[C@@H]1C | 1 to 10 µM
COc1ncc(F)cc1OC(=O)N1C[C@H](C)N(C(C)=O)c2ccc(-c3cnn(C4CC4)c3)cc21 | 1 to 10 µM
CC(=O)N1c2ccc(-c3cn[nH]c3)cc2N(C(=O)c2ccco2)C[C@@H]1C | 0.1 to 1 µM
CC(=O)N1c2cc(Cl)c(-c3ccc(S(C)(=O)=O)cc3)cc2N(C(=O)OC(C)C)C[C@@H]1C | 1 to 10 µM
CC(=O)N1c2ccc(-c3cnn(CC4(F)COC4)c3)cc2N(C(=O)C2CC2)C[C@@H]1C | 0.1 to 1 µM
CC(=O)N1c2ccc(-c3ccc(S(=O)(=O)NC(C)(C)C)cc3)cc2N(C(=O)C2CC2)C[C@@H]1C | 1 to 10 µM

----------
Property: pIC50; scope: individual compounds
biological target: BRD4 BD1 (Homo sapiens, UniProt O60885); experiment: AlphaScreen binding assay, BRD4 Bromodomain 1
pIC50: −log10 of the molar value.
property: pIC50

CC(=O)N1c2ccccc2N(S(=O)(=O)c2cccc(Cl)c2)C[C@@H]1C [Example I-946] | < 5.00
CC(=O)N1c2ccc(-c3ccc(S(C)(=O)=O)cc3)cc2N(C(=O)OC(C)C)C[C@@H]1C [Example I-294] | 6.00 to 7.00
CNS(=O)(=O)c1cccc(-c2ccc3c(c2)N(C(=O)OC2CCCCC2)C[C@H](C)N3C(C)=O)c1 [Example I-1253] | 6.00 to 7.00
CC(=O)N1c2ccc(-c3cnn(C4COC4)c3)cc2N(C(=O)C2(C)CC2)C[C@@H]1C [Example I-114] | < 5.00

----------
molecular target: BRD4 BD2 (Homo sapiens); experiment: AlphaScreen binding assay, BRD4 Bromodomain 2
property: IC50

COC(=O)N1c2ccc(-c3ccc(C(=O)N4CC[C@@H](O)C4)cc3)cc2N(C(=O)OC(C)C)C[C@@H]1C [Example I-577] | 50 to 500 nM
CC(=O)N1c2ccc(-c3cnn(C4CC4)c3)cc2N(C(=O)Oc2ccc3ncccc3c2)C[C@@H]1C [Example I-512] | < 50 nM
CC(=O)N1c2ccc(-c3ccc(N4CCCC4=O)cc3)cc2N(C(=O)OC(C)C)C[C@@H]1C [Example I-1134] | 50 to 500 nM
CC(=O)N1c2ccc(-c3ccc(S(C)(=O)=O)cc3)nc2N(C(=O)c2ccco2)C[C@@H]1C [Example I-300] | 50 to 500 nM
CC(=O)N1c2ccc(-c3ccc(S(=O)(=O)C4CC4)cc3)cc2N(C(=O)OC2CCCCC2)C[C@@H]1C [Example I-1215] | 50 to 500 nM
CC(=O)N1c2ccccc2N(S(=O)(=O)C2CC2)C[C@@H]1C [Example I-952] | > 500 nM
CC(C)OC(=O)N1C[C@H](C)N(C(=O)C2CC2)c2ccc(-c3cnn(CC4CCOCC4)c3)cc21 [Example I-623] | 50 to 500 nM
COc1cc2c(cc1-c1cnn(C3CC3)c1)N(C(=O)OC(C)C)C[C@H](C)N2C(C)=O [Example I-210] | > 500 nM
CC(=O)N1c2ccc(-c3cccc(S(=O)(=O)NCCO)c3)cc2N(C(=O)C2CCC2)C[C@@H]1C [Example I-1109] | 50 to 500 nM
CCS(=O)(=O)Nc1cccc(-c2ccc3c(c2)N(C(=O)OC2CCCCC2)C[C@H](C)N3C(C)=O)c1 [Example I-1227] | 50 to 500 nM
CC(=O)N1c2ccc(-c3cccc(C#N)c3)cc2N(C(=O)c2ccco2)C[C@@H]1C [Example I-812] | < 50 nM
COC(=O)N1c2ccc(-c3cnn(C4CC4)c3)cc2N(C(=O)OCC2CC2)C[C@@H]1C [Example I-996] | > 500 nM
CC(=O)N1c2ccccc2N(C(=O)c2cc3ccccn3n2)C[C@@H]1C [Example I-771] | > 500 nM
CC(=O)N1c2ccc(-c3ccc4c(c3)CS(=O)(=O)N4)cc2N(C(=O)C2CC2)C[C@@H]1C [Example I-1178] | 50 to 500 nM
CC(=O)N1c2ccc(-c3ccc(S(N)(=O)=O)cc3)cc2N(C(=O)c2ccco2)C[C@@H]1C [Example I-281] | < 50 nM
COC(=O)N1c2ccc(-c3ccc(N4CCS(=O)(=O)CC4)cc3)cc2N(C(=O)OC(C)C)C[C@@H]1C [Example I-483] | 50 to 500 nM
CC(=O)N1c2ccc(-c3cnn(C4COC4)c3)cc2N(C(=O)OCC2(F)COC2)C[C@@H]1C [Example I-66] | < 50 nM
C[C@H]1CN(C(=O)OC2COC2)c2cc(-c3cnn(C4CC4)c3)ccc2N1C(=O)C1CC1 [Example I-998] | > 500 nM
CC(=O)N1c2ccc(-c3ccc(S(N)(=O)=O)cc3)cc2N(C(=O)OC2CCOCC2)C[C@@H]1C [Example I-1234] | 50 to 500 nM
COc1ncc(C)cc1OC(=O)N1C[C@H](C)N(C(C)=O)c2ccc(-c3cnn(C4CC4)c3)cc21 [Example I-1210] | 50 to 500 nM
CC(=O)N1c2ccc(-c3ccc(C(=O)N4CCSCC4)cc3)cc2N(C(=O)OC(C)C)C[C@@H]1C [Example I-538] | 50 to 500 nM
CC(=O)N1c2ccc(-c3cnn(CC(=O)N4CCC4)c3)cc2N(C(=O)OC(C)C)C[C@@H]1C [Example I-667] | 50 to 500 nM
CC(=O)N1c2ccc(-c3cccc(S(C)(=O)=O)c3)cc2N(C(=O)OC(C)C)C[C@@H]1C [Example I-1053] | 50 to 500 nM
CC(=O)N1c2ccc(-c3cnn(CC(=O)N4CCOCC4)c3)cc2N(C(=O)C2CC2)C[C@@H]1C [Example I-125] | 50 to 500 nM
CC(=O)N1c2ccccc2N(Cc2cc(C)nn2C)C[C@@H]1C [Example I-905] | > 500 nM
COc1cc(Cl)ccc1OC(=O)N1C[C@H](C)N(C(C)=O)c2ccc(-c3cnn(C4CC4)c3)cc21 [Example I-529] | < 50 nM
CC(=O)N1c2ccc(-c3ccc(N4CCCC4)cc3)cc2N(C(=O)c2ccco2)C[C@@H]1C [Example I-298] | 50 to 500 nM
COC(=O)N1c2ccc(-c3cnn(CC(=O)N(C)C4CC4)c3)cc2N(C(=O)OC(C)C)C[C@@H]1C [Example I-625] | 50 to 500 nM
CC(=O)N1c2ccc(-c3ccc(C(=O)N4CCC[C@@H]4CN)cc3)cc2N(C(=O)OC(C)C)C[C@@H]1C [Example I-592] | 50 to 500 nM
CC(=O)N1c2ccc(-c3cnn(C4CC4)c3)cc2N(C(=O)Oc2ccc(C)cc2Cl)C[C@@H]1C [Example I-504] | 50 to 500 nM
